# SUBJECT_OF_TEST: cloned human δ opioid receptor (Homo sapiens, UniProt P41143)
# Construct: expressed in transfected cells; host or cells: C6 glioma cells (permanently transfected)
# Sequence (P41143 whole entry): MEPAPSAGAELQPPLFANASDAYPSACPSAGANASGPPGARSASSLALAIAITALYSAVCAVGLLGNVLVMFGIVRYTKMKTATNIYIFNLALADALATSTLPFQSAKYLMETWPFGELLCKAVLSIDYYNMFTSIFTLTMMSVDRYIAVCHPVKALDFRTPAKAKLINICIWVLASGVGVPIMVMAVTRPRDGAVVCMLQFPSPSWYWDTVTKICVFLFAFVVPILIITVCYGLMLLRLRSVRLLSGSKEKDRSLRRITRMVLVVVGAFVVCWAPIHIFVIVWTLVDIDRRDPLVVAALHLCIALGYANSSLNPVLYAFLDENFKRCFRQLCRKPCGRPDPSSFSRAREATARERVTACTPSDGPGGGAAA
# ASSAY_PROTOCOL: Radioligand binding, competitive inhibition of [3H]DPDPE
QUANTITY: pIC50
Keep it numeric: pIC50 is minus log10 of the concentration in mol/L.

| COMPOUND | pIC50 |
| --- | --- |
| CCN/C(=N/C#N)N1CCC(c2ccccc2)(c2nccn2Cc2ccccc2)CC1 [Compound 4] | 7.30 |
| CCCCNC(=O)N1CCC(c2ccccc2)(c2nccn2Cc2ccccc2)CC1 [Compound 50] | 7.60 |
| O=C(Nc1ccccc1Oc1ccccc1)N1CCC(c2ccccc2)(c2nccn2Cc2ccccc2)CC1 [Compound 75] | 7.40 |
| CC(c1ccccc1)n1ccnc1C1(c2ccccc2)CCN(c2nc3ccccc3o2)CC1 (stereo not drawn) [Compound 101] | 7.80 |
| O=C(Nc1ccc([N+](=O)[O-])cc1)N1CCC(c2ccccc2)(c2nccn2Cc2ccccc2)CC1 [Compound 71] | 7.30 |

For the compound O=C(Nc1ccccn1)N1CCC(c2ccccc2)(c2nccn2Cc2ccccc2)CC1 [Compound 87] , report pIC50.
7.30

For the compound CCOC(=O)CNC(=O)N1CCC(c2ccccc2)(c2nccn2Cc2ccccc2)CC1 [Compound 48] , report pIC50.
7.10

For the compound O=C(NCc1ccccc1)N1CCC(c2ccccc2)(c2nccn2Cc2ccccc2)CC1 [Compound 80] , report pIC50.
7.10

For the compound CSc1ccccc1NC(=O)N1CCC(c2ccccc2)(c2nccn2Cc2ccccc2)CC1 [Compound 76] , report pIC50.
7.40

For the compound CCN(CC)C(=O)c1ccc(Cn2ccnc2C2(c3ccccc3)CCN(c3nc4ccccc4o3)CC2)cc1 [Compound 99] , report pIC50.
7.30

For the compound O=C(NC1CCCCC1)N1CCC(c2ccccc2)(c2nccn2Cc2ccccc2)CC1 [Compound 51] , report pIC50.
7.30

For the compound O=C(OC1CCCCC1)N1CCC(c2ccccc2)(c2nccn2Cc2ccccc2)CC1 [Compound 28] , report pIC50.
7.80

Value source: patent US20060287345A1
